Hello, the source for this data is patent US7238697B2, in case you need it.

Please provide measured chromatographic logP for the entries that follow.
ASSAY COMMENT: log P determination by HPLC (reversed-phase C18), EEC Directive 79/831 Annex V.A8
Type: physicochemical
EXPERIMENTAL CONTEXT: reversed-phase C18 HPLC column; pH 2.3; HPLC, reversed-phase C 18, 43° C., 0.1% aqueous phosphoric acid/acetonitrile; read-out: log P (pH 2.3)
# respond with the number and nothing more

Inquiry: Query (compound): "Cc1noc(C)c1CCOC(=O)CSc1nccc(-c2ccccn2)n1" ; field requested: chromatographic logP
Reply text: 2.25

Inquiry: Same thing, different compound: "O=C(CSc1nccc(-c2ccccn2)n1)NC1CCCCC1"
Reply text: 2.31

Inquiry: Same thing, different compound: "O=C(NCCOC(=O)CSc1nccc(-c2ccccn2)n1)Nc1cccc2c1CCCC2"
Reply text: 2.94

Inquiry: Same thing, different compound: "COC(=O)CSc1nc(-c2ccccn2)cc(C(C)C)n1"
Reply text: 3.11

Inquiry: Same thing, different compound: "O=C(CSc1nccc(-c2ccccn2)n1)NCc1ccco1"
Reply text: 1.82

Inquiry: Same thing, different compound: "CCOC(=O)CSc1nccc(-c2cccc(OCC)n2)n1"
Reply text: 3.67

Inquiry: Same thing, different compound: "O=C(CSc1nccc(-c2ccccn2)n1)NCc1ccc(Cl)cc1Cl"
Reply text: 2.69

Inquiry: Same thing, different compound: "Cc1c(NC(=O)CSc2nccc(-c3ccccn3)n2)cccc1[N+](=O)[O-]"
Reply text: 2.28

Inquiry: Same thing, different compound: "CN(Cc1ccc(Cl)nc1)C(=O)CSc1nccc(-c2ccccn2)n1"
Reply text: 2.01

Inquiry: Same thing, different compound: "O=C(CSc1nccc(-c2ccccn2)n1)NCc1ccccc1SC(F)(F)F"
Reply text: 2.92

Inquiry: Same thing, different compound: "CCOC(=O)CSc1nccc(-c2ccc([N+](=O)[O-])cn2)n1"
Reply text: 2.77

Inquiry: Same thing, different compound: "CCOC(=O)CSc1nccc(-c2ccc(C)cn2)n1"
Reply text: 2.5

Inquiry: Same thing, different compound: "CC(C)(C)OC(=O)NCCCOC(=O)CSc1nccc(-c2ccccn2)n1"
Reply text: 2.79

Inquiry: Same thing, different compound: "C=CC(=O)OCCCOC(=O)CSc1nccc(-c2ccccn2)n1"
Reply text: 2.49

Inquiry: Same thing, different compound: "COc1ccc(CNC(=O)CSc2nccc(-c3ccccn3)n2)cc1"
Reply text: 2

Inquiry: Same thing, different compound: "O=C(CSc1nccc(-c2ccccn2)n1)OCC(F)(F)F"
Reply text: 2.69

Inquiry: Same thing, different compound: CC(NC(=O)CSc1nccc(-c2ccccn2)n1)c1ccc(Cl)cc1 (stereo not shown)
Reply text: 2.58

Inquiry: Same thing, different compound: "CON(C)C(=O)COC(=O)CSc1nccc(-c2ccccn2)n1"
Reply text: 1.97

Inquiry: Same thing, different compound: "O=C(CSc1nccc(-c2ccccn2)n1)NCC1CC1"
Reply text: 1.83

Inquiry: Same thing, different compound: CCCOC(=O)C(Sc1nccc(-c2ccccn2)n1)C(C)C (stereo not shown)
Reply text: 3.96

Inquiry: Same thing, different compound: "O=C(CSc1nccc(-c2ccccn2)n1)OCCOCC(F)(F)F"
Reply text: 2.7

Inquiry: Same thing, different compound: "O=C(CSc1nccc(-c2ccccn2)n1)OCC(F)(F)C(F)(F)F"
Reply text: 3.24

Inquiry: Same thing, different compound: "COC(=O)CSc1nc(-c2ccccn2)cc(-c2ccccn2)n1"
Reply text: 2.81

Inquiry: Same thing, different compound: "CC(C)(C)n1nnc(CSc2nccc(-c3ccccn3)n2)n1"
Reply text: 2.69

Inquiry: Same thing, different compound: CC(C=C(Cl)Cl)OC(=O)CSc1nccc(-c2ccccn2)n1 (stereo not shown)
Reply text: 3.48

----------
ASSAY COMMENT: log P determination by HPLC (reversed-phase C18), EEC Directive 79/831 Annex V.A8
Format: physicochemical
EXPERIMENTAL CONTEXT: reversed-phase C18 HPLC column; pH 2.3; HPLC, reversed-phase C 18, 43° C., 0.1% aqueous phosphoric acid/acetonitrile; read-out: log P (pH 2.3)
Grouping by measured chromatographic logP is done with the following cut points: lowest (below 2), middle (2 to below 3), highest (3 or more)

Inquiry: Using the reported chromatographic logP, which band applies to "O=C(CSc1nccc(-c2ccccn2)n1)N1CCCC1" ?
Reply text: lowest

Inquiry: Same thing, different molecule: "O=C(CSc1nccc(-c2ccccn2)n1)OCC(Cl)(Cl)Cl"
Reply text: highest

Inquiry: Same thing, different molecule: "O=C(CSc1nccc(-c2ccccn2)n1)N1CCCCC1"
Reply text: middle

Inquiry: Same thing, different molecule: "O=C(CSc1nccc(-c2ccccn2)n1)OC1COCOC1"
Reply text: lowest

Inquiry: Same thing, different molecule: "CCOC(=O)CSc1nccc(-c2ncccc2OC)n1"
Reply text: lowest

Inquiry: Same thing, different molecule: "CCOC(=O)CSc1ncc(C)c(-c2ccccn2)n1"
Reply text: middle

Inquiry: Same thing, different molecule: "COC(=O)CSc1nccc(-c2ccccn2)n1"
Reply text: lowest

Inquiry: Same thing, different molecule: "O=C(CSc1nccc(-c2ccccn2)n1)OCCC(F)(F)F"
Reply text: middle

Inquiry: Same thing, different molecule: "N#Cc1ccc(NC(=O)NCCCOC(=O)CSc2nccc(-c3ccccn3)n2)cc1"
Reply text: middle

Inquiry: Same thing, different molecule: "O=C(CSc1nccc(-c2ccccn2)n1)NC1CC1"
Reply text: lowest

Inquiry: Same thing, different molecule: "CC(C)(C)c1ccc(NC(=O)NCCCOC(=O)CSc2nccc(-c3ccccn3)n2)cc1"
Reply text: highest

Inquiry: Same thing, different molecule: "CC(C)CCOC(=O)CSc1nccc(-c2ccccn2)n1"
Reply text: highest

Inquiry: Same thing, different molecule: "CCOC(=O)CSc1nccc(-c2cc(C(C)(C)C)ccn2)n1"
Reply text: highest

Inquiry: Same thing, different molecule: "CCOC(=O)CSc1nccc(-c2cccc(Cl)n2)n1"
Reply text: highest

Inquiry: Same thing, different molecule: "O=C(CSc1nccc(-c2ccccn2)n1)OC1CS(=O)(=O)C1"
Reply text: lowest

Inquiry: Same thing, different molecule: "O=C(CSc1nccc(-c2ccccn2)n1)OCC1CCCC1"
Reply text: highest

----------
ASSAY COMMENT: log P determination by HPLC (reversed-phase C18), EEC Directive 79/831 Annex V.A8
Assay type: physicochemical
EXPERIMENTAL CONTEXT: reversed-phase C18 HPLC column; pH 2.3; HPLC, reversed-phase C 18, 43° C., 0.1% aqueous phosphoric acid/acetonitrile; read-out: log P (pH 2.3)
Procedure: The stated log P values were determined in accordance with EEC Directive 79/831 Annex V.A8 by HPLC (High Performance Liquid Chromatography) using a reversed-phase column, (C 18). Temperature: 43° C. Mobile phases for the determination in the acidic range: 0.1% aqueous phosphoric acid, acetonitrile; linear gradient from 10% acetonitrile to 90% acetonitrile. […]
Please provide measured chromatographic logP for the entries that follow.

Inquiry: Query (compound): "N#CCCCCOC(=O)CSc1nccc(-c2ccccn2)n1" ; field requested: chromatographic logP
Reply text: 2.29

Inquiry: Same thing, different compound: "CCOC(=O)CSc1nccc(-c2ccc(CC)cn2)n1"
Reply text: 2.98

Inquiry: Same thing, different compound: "O=C(CSc1nccc(-c2ccccn2)n1)NCc1ccc(Cl)cc1"
Reply text: 2.38

----------
ASSAY COMMENT: log P determination by HPLC (reversed-phase C18), EEC Directive 79/831 Annex V.A8
Type: physicochemical
EXPERIMENTAL CONTEXT: reversed-phase C18 HPLC column; pH 2.3; HPLC, reversed-phase C 18, 43° C., 0.1% aqueous phosphoric acid/acetonitrile; read-out: log P (pH 2.3)
PROPERTY: chromatographic logP
# respond with the number and nothing more

Inquiry: Query (compound): "O=C(CSc1nccc(-c2ccccn2)n1)OCc1ccccc1" ; field requested: chromatographic logP
Reply text: 2.99

Inquiry: Same thing, different compound: "CC(C)COC(=O)c1cccc(NC(=O)NCCCOC(=O)CSc2nccc(-c3ccccn3)n2)c1"
Reply text: 3.45

Inquiry: Same thing, different compound: "CCOC(=O)CSc1nccc(-c2cccc(Br)n2)n1"
Reply text: 3.31

Inquiry: Same thing, different compound: "CCOC(=S)CSc1nccc(-c2ccccn2)n1"
Reply text: 3.3

Inquiry: Same thing, different compound: "CCOC(=O)CSc1nccc(-c2ccc3ccccc3n2)n1"
Reply text: 3.49

----------
Please provide measured chromatographic logP for the entries that follow.
ASSAY COMMENT: log P determination by HPLC (reversed-phase C18), EEC Directive 79/831 Annex V.A8
Type: physicochemical
EXPERIMENTAL CONTEXT: reversed-phase C18 HPLC column; pH 2.3; HPLC, reversed-phase C 18, 43° C., 0.1% aqueous phosphoric acid/acetonitrile; read-out: log P (pH 2.3)
# respond with the number and nothing more

Inquiry: Query (molecule): O=C(NCCCOC(=O)CSc1nccc(-c2ccccn2)n1)Nc1cccc2c1CCCC2 [Example 133] ; field requested: chromatographic logP
Reply text: 3.06

Inquiry: Same thing, different molecule: CC(C)COC(=O)c1cccc(NC(=O)NCCOC(=O)CSc2nccc(-c3ccccn3)n2)c1 [Example 149]
Reply text: 3.01

Inquiry: Same thing, different molecule: CC(C)(C)C(=O)OCCNC(=O)NCCCOC(=O)CSc1nccc(-c2ccccn2)n1 [Example 129]
Reply text: 2.51

Inquiry: Same thing, different molecule: CCNC(=O)COC(=O)CSc1nccc(-c2ccccn2)n1 [Example 231]
Reply text: 1.97

Inquiry: Same thing, different molecule: N#Cc1ccc(NC(=O)NCCOC(=O)CSc2nccc(-c3ccccn3)n2)cc1 [Example 146]
Reply text: 2.3
